Target: Glutaminase kidney isoform, mitochondrial (Homo sapiens)
Test: qHTS for Inhibitors of Glutaminase (GLS)
Conditions: GLS enzymatic activity, qHTS titration; series mostly up to 45.5 µM
Hit rate of the full screen: of about 410,000 compounds, about 850 (0.21%) were called active. Roughly 2% stayed inconclusive and do not appear here. The full list was thinned out, with actives kept by preference.
experimental endpoint: outcome

>  <compound>
COc1ccc(OC)c(NC(=O)Cn2c(=O)n(Cc3ccccc3)c(=O)c3ccccc32)c1

>  <experimental endpoint>
outcome

>  <meas value>
inactive

$$$$
>  <compound>
Cc1cccc(C(C)C)c1NC(=O)C(NS(=O)(=O)c1cccc2nsnc12)c1ccccc1 (stereo not given)

>  <experimental endpoint>
outcome

>  <meas value>
inactive

$$$$
>  <compound>
O=C(O)c1ccc2c(c1)N(Cc1ccc(F)cc1)C(=O)c1ccccc1S2=O (stereo not given)

>  <experimental endpoint>
outcome

>  <meas value>
inactive

$$$$
>  <compound>
COc1ccc(NC(=O)c2sc3nc[nH]c(=O)c3c2C)cc1

>  <experimental endpoint>
outcome

>  <meas value>
inactive

$$$$
>  <compound>
Cc1ccccc1NC(=O)c1cc2c([nH]c1=O)CC(C)(C)CC2=O

>  <experimental endpoint>
outcome

>  <meas value>
inactive

$$$$
>  <compound>
Cc1cc(C)c2nc(SCC(=O)N(C)C3CCS(=O)(=O)C3)cc(C)c2c1 (stereo not given)

>  <experimental endpoint>
outcome

>  <meas value>
inactive

$$$$
>  <compound>
CC(NC(=O)CCc1cn(Cc2ccccc2Cl)c2ccccc12)c1ccccc1 (stereo not given)

>  <experimental endpoint>
outcome

>  <meas value>
inactive

$$$$
>  <compound>
CCN(C(=O)COC(=O)/C=C/c1nc2ccccc2s1)C1CCS(=O)(=O)C1 (stereo not given)

>  <experimental endpoint>
outcome

>  <meas value>
inactive

$$$$
>  <compound>
Cc1nc2nc(SCC(=O)NC3CCC(C)CC3)nn2c(C)c1Cc1ccccc1Cl (stereo not given)

>  <experimental endpoint>
outcome

>  <meas value>
inactive

$$$$
>  <compound>
CCCCCCCCCCCCCCCCO

>  <experimental endpoint>
outcome

>  <meas value>
inactive

$$$$

Recorded values, source PubChem BioAssay AID624170.
